Listing of entries alongside the reported furin cleavage Z-score.
- TARGET OR TEST SYSTEM: furin, P09958;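 note: purified furin at 1:10 enzyme:substrate in 50 mM HEPES pH 7.5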
- Sequence (P09958 whole entry): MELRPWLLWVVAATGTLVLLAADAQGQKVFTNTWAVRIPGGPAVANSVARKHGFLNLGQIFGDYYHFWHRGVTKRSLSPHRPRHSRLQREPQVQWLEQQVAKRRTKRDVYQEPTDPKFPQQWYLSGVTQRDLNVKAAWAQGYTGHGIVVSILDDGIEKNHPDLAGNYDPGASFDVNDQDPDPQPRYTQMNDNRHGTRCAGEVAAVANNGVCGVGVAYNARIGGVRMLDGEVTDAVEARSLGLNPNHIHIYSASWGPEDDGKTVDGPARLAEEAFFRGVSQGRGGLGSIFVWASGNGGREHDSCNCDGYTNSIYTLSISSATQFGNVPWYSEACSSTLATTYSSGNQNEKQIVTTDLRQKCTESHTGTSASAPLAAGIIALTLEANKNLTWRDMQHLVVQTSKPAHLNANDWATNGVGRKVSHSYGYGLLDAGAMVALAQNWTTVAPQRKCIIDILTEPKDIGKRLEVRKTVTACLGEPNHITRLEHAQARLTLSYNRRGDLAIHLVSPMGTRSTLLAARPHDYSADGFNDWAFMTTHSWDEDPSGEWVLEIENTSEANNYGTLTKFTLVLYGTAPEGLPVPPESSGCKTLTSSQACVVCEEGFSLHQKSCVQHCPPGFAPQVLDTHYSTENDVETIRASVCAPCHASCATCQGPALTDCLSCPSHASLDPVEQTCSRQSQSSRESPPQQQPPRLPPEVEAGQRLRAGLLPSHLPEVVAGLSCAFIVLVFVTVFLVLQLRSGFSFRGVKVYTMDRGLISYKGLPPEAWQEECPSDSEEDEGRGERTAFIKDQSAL
- PROCEDURE SUMMARY: furin cleavage Z-score vs untreated control; higher = more cleavage, active = 3.5 or more, inactive = 1 or less, 8 variable residues between constant flanks
- PARTICULARS: 30 min
The other results are listed elsewhere or left out. How many sequences the whole screen found active is unknown.

Answered cases to consult:
polymer_sequence="CARRKKSAPAAGNASASA [FS-2514]" result="5.54 (active)"
polymer_sequence="CARTRRSINSAGNASASA [FS-2316]" result="7.57 (active)"
polymer_sequence="CARTRRYTLFAGNASASA [FS-2191]" result="4.23 (active)"
polymer_sequence="CARRARGADAAGNASASA [FS-2512]" result="4.42 (active)"

Query: For CAGSIRKKRFAGNASASA [FS-1457] , what is its reported furin cleavage Z-score?
Reply: 6.64 (active)
